We begin with a simple list: items and their reported IC50.
test system: 958667-338-R-J2-PDC tumor spheroids viability; experiment: Anticancer human tumor 958667-338-R-J2-PDC patient-derived colon adenocarcinoma cell line growth inhibition [PI3K]; settings: curve of first compound; second compound 0.316 µM; spheroids with HUVEC and MSC

Example entries and their recorded answers appear below.
compound	test.system	IC50
CC(=O)c1c(C)c2cnc(Nc3ccc(N4CCNCC4)cn3)nc2n(C2CCCC2)c1=O + Cc1nc(NC(=O)N2CCCC2C(N)=O)sc1-c1ccnc(C(C)(C)C(F)(F)F)c1	958667-338-R-J2-PDC tumor spheroids viability	> 100 nM
C[C@@H](NC(=O)c1ncnc(N)c1Cl)c1ncc(C(=O)Nc2cc(C(F)(F)F)c(Cl)cn2)s1 + CC(Nc1ccc2c(c1)OCCn1cc(N3C(=O)OCC3C(F)F)nc1-2)C(N)=O	958667-338-R-J2-PDC tumor spheroids viability	> 10000 nM

Would you kindly look at the next entry?
Query: # IC50 lookup, item CCCS(=O)(=O)Nc1ccc(F)c(C(=O)c2c[nH]c3ncc(-c4ccc(Cl)cc4)cc23)c1F + COc1c(OCCCN2CCOCC2)ccc2c3n(c(=NC(=O)c4cnc(N)nc4)nc12)CCN3
Reply: < 31.6 nM

----------
system: 958667-338-R-J2-PDC tumor spheroids viability; experiment: Anticancer human tumor 958667-338-R-J2-PDC cell line growth inhibition [PI3K]; details: curve of first compound; second compound 0.316 µM; spheroids with HUVEC and MSC;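 also: spheroids exposed to compounds for seven days before readout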
pIC50: −log10 of the molar value.
result.type: pIC50

compound	result.type	observed.result
Cn1cnc2c(F)c(Nc3ccc(Br)cc3Cl)c(C(=O)NOCCO)cc21 + Cc1nc(NC(=O)N2CCCC2C(N)=O)sc1-c1ccnc(C(C)(C)C(F)(F)F)c1	pIC50	6.97
CC(Cn1ccc(-c2ccc(C#N)c(Cl)c2)n1)NC(=O)c1cc(C(C)O)[nH]n1 (configuration not stated) + Cc1nc(NC(=O)N2CCCC2C(N)=O)sc1-c1ccnc(C(C)(C)C(F)(F)F)c1	pIC50	< 5.00
C=CC(=O)N1CCN(c2nc(=O)n(-c3c(C)ccnc3C(C)C)c3nc(-c4c(O)cccc4F)c(F)cc23)C(C)C1 (configuration not stated) + CC(Nc1ncnc2nc[nH]c12)c1cc2cccc(Cl)c2c(=O)n1-c1ccccc1	pIC50	< 5.00
CNC(=O)c1ccc(N2C(=S)N(c3ccc(C#N)c(C(F)(F)F)c3)C(=O)C2(C)C)cc1F + Cc1nc(NC(=O)N2CCCC2C(N)=O)sc1-c1ccnc(C(C)(C)C(F)(F)F)c1	pIC50	< 5.00
Cn1ncnc1[C@H]1c2n[nH]c(=O)c3cc(F)cc(c23)N[C@@H]1c1ccc(F)cc1 + CC(Nc1ccc2c(c1)OCCn1cc(N3C(=O)OCC3C(F)F)nc1-2)C(N)=O	pIC50	< 7.00

Query: Look at this compound and give its reported pIC50. CNC(=O)c1ccc(N2C(=S)N(c3ccc(C#N)c(C(F)(F)F)c3)C(=O)C2(C)C)cc1F + COc1c(OCCCN2CCOCC2)ccc2c3n(c(=NC(=O)c4cnc(N)nc4)nc12)CCN3
Reply: > 7.50

Query: Field request: pIC50 | item: Cn1nccc1Nc1nccc(-c2ccn(C(CO)c3ccc(Cl)c(F)c3)c(=O)c2)n1 (configuration not stated) + COc1c(OCCCN2CCOCC2)ccc2c3n(c(=NC(=O)c4cnc(N)nc4)nc12)CCN3
Reply: > 7.50

----------
system: 958667-338-R-J2-PDC tumor spheroids viability; assay: Anticancer human tumor 958667-338-R-J2-PDC cell line growth inhibition [PI3K]; details: second compound 0.0316 µM; first compound 3.16 µM; stronger effect = lower value; spheroids with HUVEC and MSC;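 also: spheroids exposed to compounds for seven days before readout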
result.type: viability, T/C

The examples below pair each entry with its known result.
compound	test.system	viability, T/C
CNC(=O)c1ccc(N2C(=S)N(c3ccc(C#N)c(C(F)(F)F)c3)C(=O)C2(C)C)cc1F + CC(Nc1ncnc2nc[nH]c12)c1cc2cccc(Cl)c2c(=O)n1-c1ccccc1	958667-338-R-J2-PDC tumor spheroids viability	113%
C=CC(=O)N1CCN(c2nc(=O)n(-c3c(C)ccnc3C(C)C)c3nc(-c4c(O)cccc4F)c(F)cc23)C(C)C1 (configuration not stated) + COc1c(OCCCN2CCOCC2)ccc2c3n(c(=NC(=O)c4cnc(N)nc4)nc12)CCN3	958667-338-R-J2-PDC tumor spheroids viability	78.2%
CC1(C)CCC(Nc2ncc(C(F)(F)F)c(-c3c[nH]c4c(P(C)(C)=O)c(C#N)ccc34)n2)CN1 (configuration not stated) + CC(Nc1ncnc2nc[nH]c12)c1cc2cccc(Cl)c2c(=O)n1-c1ccccc1	958667-338-R-J2-PDC tumor spheroids viability	70.1%
CC(Cn1ccc(-c2ccc(C#N)c(Cl)c2)n1)NC(=O)c1cc(C(C)O)[nH]n1 (configuration not stated) + CC(Nc1ccc2c(c1)OCCn1cc(N3C(=O)OCC3C(F)F)nc1-2)C(N)=O	958667-338-R-J2-PDC tumor spheroids viability	95%
CC1(C)CCC(Nc2ncc(C(F)(F)F)c(-c3c[nH]c4c(P(C)(C)=O)c(C#N)ccc34)n2)CN1 (configuration not stated) + Cc1nc(NC(=O)N2CCCC2C(N)=O)sc1-c1ccnc(C(C)(C)C(F)(F)F)c1	958667-338-R-J2-PDC tumor spheroids viability	71.4%

Query: Field request: viability, T/C | item: CC(Cn1ccc(-c2ccc(C#N)c(Cl)c2)n1)NC(=O)c1cc(C(C)O)[nH]n1 (configuration not stated) + Cc1nc(NC(=O)N2CCCC2C(N)=O)sc1-c1ccnc(C(C)(C)C(F)(F)F)c1
Reply: 102%

----------
tested on: 958667-338-R-J2-PDC tumor spheroids viability; test: Anticancer human tumor 958667-338-R-J2-PDC cell line growth inhibition [PI3K]; conditions: second compound 0.0316 µM; first compound 3.16 µM; stronger effect = lower value; spheroids with HUVEC and MSC;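 also: spheroids exposed to compounds for seven days before readout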
# maps each entry to its viability, T/C
# number only, unit % dropped from output

Sample records with viability, T/C:
compound	test.system	unit.descriptor	viability, T/C
C=CC(=O)N1CCN(c2nc(=O)n(-c3c(C)ccnc3C(C)C)c3nc(-c4c(O)cccc4F)c(F)cc23)C(C)C1 (stereo unspecified) + Cc1nc(NC(=O)N2CCCC2C(N)=O)sc1-c1ccnc(C(C)(C)C(F)(F)F)c1	958667-338-R-J2-PDC tumor spheroids viability	%	126
CCCS(=O)(=O)Nc1ccc(F)c(C(=O)c2c[nH]c3ncc(-c4ccc(Cl)cc4)cc23)c1F + COc1c(OCCCN2CCOCC2)ccc2c3n(c(=NC(=O)c4cnc(N)nc4)nc12)CCN3	958667-338-R-J2-PDC tumor spheroids viability	%	103
Cn1nccc1Nc1nccc(-c2ccn(C(CO)c3ccc(Cl)c(F)c3)c(=O)c2)n1 (stereo unspecified) + CC(Nc1ncnc2nc[nH]c12)c1cc2cccc(Cl)c2c(=O)n1-c1ccccc1	958667-338-R-J2-PDC tumor spheroids viability	%	72.2
CC(C)NCC(C(=O)N1CCN(c2ncnc3c2C(C)CC3O)CC1)c1ccc(Cl)cc1 (stereo unspecified) + CC(Nc1ncnc2nc[nH]c12)c1cc2cccc(Cl)c2c(=O)n1-c1ccccc1	958667-338-R-J2-PDC tumor spheroids viability	%	89.7
CC1(C)CCC(CN2CCN(c3ccc(C(=O)NS(=O)(=O)c4ccc(NCC5CCOCC5)c([N+](=O)[O-])c4)c(Oc4cnc5[nH]ccc5c4)c3)CC2)=C(c2ccc(Cl)cc2)C1 + CC(Nc1ncnc2nc[nH]c12)c1cc2cccc(Cl)c2c(=O)n1-c1ccccc1	958667-338-R-J2-PDC tumor spheroids viability	%	119

Query: Given CNC(=O)c1ccc(N2C(=S)N(c3ccc(C#N)c(C(F)(F)F)c3)C(=O)C2(C)C)cc1F + COc1c(OCCCN2CCOCC2)ccc2c3n(c(=NC(=O)c4cnc(N)nc4)nc12)CCN3 , state its recorded viability, T/C.
Reply: 92.7
